- Target Or Test System: T1, Axl (Homo sapiens, UniProt P30530)
- T1 sequence (P30530 26-451 limits assumed): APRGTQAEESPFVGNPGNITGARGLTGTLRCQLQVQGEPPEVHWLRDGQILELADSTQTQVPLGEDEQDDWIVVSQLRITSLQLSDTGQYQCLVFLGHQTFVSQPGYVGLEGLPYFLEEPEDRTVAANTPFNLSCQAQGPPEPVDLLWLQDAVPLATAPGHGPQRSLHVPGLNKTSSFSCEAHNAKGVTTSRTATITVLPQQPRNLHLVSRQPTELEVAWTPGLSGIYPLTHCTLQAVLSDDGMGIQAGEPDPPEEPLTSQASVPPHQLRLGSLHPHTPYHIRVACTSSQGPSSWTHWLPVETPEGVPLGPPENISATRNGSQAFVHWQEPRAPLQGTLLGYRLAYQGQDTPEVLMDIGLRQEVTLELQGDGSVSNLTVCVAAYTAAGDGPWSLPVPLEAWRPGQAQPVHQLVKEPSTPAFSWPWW
- Measurement Description: Affinity ELISA of CPE mutant antibodies for binding to Axl at pH 6.0 over pH 7.4
- Measurement Parameters: light chain variable region mutants; 1:9 dilution
# Lookup of reported Affinity ELISA CPE mutant ratio (1:9, pH 6.0/7.4) keyed by entry
Experimental Endpoint: Affinity ELISA CPE mutant ratio (1:9, pH 6.0/7.4)

Molecule: LC-V029G (antibody, V domains shown) VH: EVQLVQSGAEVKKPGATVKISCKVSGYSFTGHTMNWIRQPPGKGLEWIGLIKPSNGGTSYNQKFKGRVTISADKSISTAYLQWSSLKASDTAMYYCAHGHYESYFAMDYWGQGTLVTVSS VL: DIQMTQSPSSLSASVGDRVTITCKASQDGSSAVAWYQQKPGQAPRLLIYWASTRHTGVPSRFSGSGSGTEFTLTISSLQPDDFATYYCQEHFSTPLTFGQGTKVEIK
Endpoint Result: 1.803
//
Molecule: LC-H091T (antibody, V domains shown) VH: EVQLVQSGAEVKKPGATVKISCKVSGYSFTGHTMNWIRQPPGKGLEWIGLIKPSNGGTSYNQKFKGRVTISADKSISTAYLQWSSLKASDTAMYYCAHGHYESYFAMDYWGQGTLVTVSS VL: DIQMTQSPSSLSASVGDRVTITCKASQDVSSAVAWYQQKPGQAPRLLIYWASTRHTGVPSRFSGSGSGTEFTLTISSLQPDDFATYYCQETFSTPLTFGQGTKVEIK
Endpoint Result: 3.781
//
Molecule: LC-F092C (antibody, V domains shown) VH: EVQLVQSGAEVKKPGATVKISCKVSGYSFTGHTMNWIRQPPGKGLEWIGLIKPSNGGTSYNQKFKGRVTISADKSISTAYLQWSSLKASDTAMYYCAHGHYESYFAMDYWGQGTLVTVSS VL: DIQMTQSPSSLSASVGDRVTITCKASQDVSSAVAWYQQKPGQAPRLLIYWASTRHTGVPSRFSGSGSGTEFTLTISSLQPDDFATYYCQEHCSTPLTFGQGTKVEIK
Endpoint Result: 4.576
//
Molecule: LC-H091C (antibody, V domains shown) VH: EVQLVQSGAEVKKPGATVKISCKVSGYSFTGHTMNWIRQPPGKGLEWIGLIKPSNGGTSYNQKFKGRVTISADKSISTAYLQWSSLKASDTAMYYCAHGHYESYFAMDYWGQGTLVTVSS VL: DIQMTQSPSSLSASVGDRVTITCKASQDVSSAVAWYQQKPGQAPRLLIYWASTRHTGVPSRFSGSGSGTEFTLTISSLQPDDFATYYCQECFSTPLTFGQGTKVEIK
Endpoint Result: 3.025
//
Molecule: LC-P095A (antibody, V domains shown) VH: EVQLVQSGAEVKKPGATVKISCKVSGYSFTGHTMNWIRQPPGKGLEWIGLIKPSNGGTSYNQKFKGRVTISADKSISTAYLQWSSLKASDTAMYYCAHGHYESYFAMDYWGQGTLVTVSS VL: DIQMTQSPSSLSASVGDRVTITCKASQDVSSAVAWYQQKPGQAPRLLIYWASTRHTGVPSRFSGSGSGTEFTLTISSLQPDDFATYYCQEHFSTALTFGQGTKVEIK
Endpoint Result: 2.987
//
Molecule: LC-F092E (antibody, V domains shown) VH: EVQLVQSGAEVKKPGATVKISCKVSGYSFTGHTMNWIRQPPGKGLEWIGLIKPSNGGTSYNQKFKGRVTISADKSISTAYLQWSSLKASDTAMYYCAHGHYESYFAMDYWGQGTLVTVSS VL: DIQMTQSPSSLSASVGDRVTITCKASQDVSSAVAWYQQKPGQAPRLLIYWASTRHTGVPSRFSGSGSGTEFTLTISSLQPDDFATYYCQEHESTPLTFGQGTKVEIK
Endpoint Result: 1.999
//
Molecule: LC-P095V (antibody, V domains shown) VH: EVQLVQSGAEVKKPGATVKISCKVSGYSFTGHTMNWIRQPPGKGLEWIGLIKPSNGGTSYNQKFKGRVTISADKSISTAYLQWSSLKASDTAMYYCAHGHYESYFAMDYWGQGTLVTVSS VL: DIQMTQSPSSLSASVGDRVTITCKASQDVSSAVAWYQQKPGQAPRLLIYWASTRHTGVPSRFSGSGSGTEFTLTISSLQPDDFATYYCQEHFSTVLTFGQGTKVEIK
Endpoint Result: 2.132
//
Molecule: LC-H091Y (antibody, V domains shown) VH: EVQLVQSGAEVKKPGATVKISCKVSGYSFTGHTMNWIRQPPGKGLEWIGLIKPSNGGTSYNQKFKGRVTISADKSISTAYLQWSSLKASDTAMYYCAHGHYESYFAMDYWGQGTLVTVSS VL: DIQMTQSPSSLSASVGDRVTITCKASQDVSSAVAWYQQKPGQAPRLLIYWASTRHTGVPSRFSGSGSGTEFTLTISSLQPDDFATYYCQEYFSTPLTFGQGTKVEIK
Endpoint Result: 5.126
//
Molecule: LC-P095H (antibody, V domains shown) VH: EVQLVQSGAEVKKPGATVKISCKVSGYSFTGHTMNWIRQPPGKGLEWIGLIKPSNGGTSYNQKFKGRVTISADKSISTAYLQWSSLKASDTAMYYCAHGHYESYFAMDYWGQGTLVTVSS VL: DIQMTQSPSSLSASVGDRVTITCKASQDVSSAVAWYQQKPGQAPRLLIYWASTRHTGVPSRFSGSGSGTEFTLTISSLQPDDFATYYCQEHFSTHLTFGQGTKVEIK
Endpoint Result: 2.754
//
Molecule: LC-P095T (antibody, V domains shown) VH: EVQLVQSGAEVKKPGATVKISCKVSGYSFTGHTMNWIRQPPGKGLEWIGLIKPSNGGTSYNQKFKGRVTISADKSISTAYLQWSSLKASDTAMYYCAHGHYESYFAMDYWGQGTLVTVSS VL: DIQMTQSPSSLSASVGDRVTITCKASQDVSSAVAWYQQKPGQAPRLLIYWASTRHTGVPSRFSGSGSGTEFTLTISSLQPDDFATYYCQEHFSTTLTFGQGTKVEIK
Endpoint Result: 2.086
